src = patent US20220033431A1

STUDY SYSTEM: full-length HAQ STING (Homo sapiens, UniProt Q86WV6, G230A/H232R/R293Q/R71H)
Construct: Full-Length HAQ STING [STING(1-379)R71H, G230A, H232R,; membrane preparation
Sequence (Q86WV6 with tags, fused parts or gaps R71H/G230A/H232R/R293Q): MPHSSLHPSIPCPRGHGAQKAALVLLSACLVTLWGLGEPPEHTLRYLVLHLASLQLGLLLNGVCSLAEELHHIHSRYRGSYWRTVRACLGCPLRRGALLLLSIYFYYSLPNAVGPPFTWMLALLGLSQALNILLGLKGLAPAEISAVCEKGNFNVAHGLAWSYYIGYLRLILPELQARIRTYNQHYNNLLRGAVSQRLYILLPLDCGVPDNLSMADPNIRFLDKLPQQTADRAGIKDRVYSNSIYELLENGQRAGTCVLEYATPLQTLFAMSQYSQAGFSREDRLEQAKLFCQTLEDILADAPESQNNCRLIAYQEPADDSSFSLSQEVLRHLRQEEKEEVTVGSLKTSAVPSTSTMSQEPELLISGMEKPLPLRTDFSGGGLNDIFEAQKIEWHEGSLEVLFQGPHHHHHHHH
ASSAY INFO: 3H-cGAMP filtration binding assay (HAQ STING)
MEASUREMENT CONDITIONS: 3H-cGAMP filtration binding assay for HAQ STING; competition with tritiated cGAMP
Parameter EC50: see the listing below.
Please reply with the bare figure in nM and do not write the unit itself.

For orientation, consider the following solved cases.
Nc1nc2c(ncn2[C@@H]2O[C@@H]3COP(=O)(S)O[C@H]4[C@H](F)[C@H](n5nnc6c(N)ncnc65)O[C@@H]4COP(=O)(S)O[C@H]2[C@@H]3O)c(=O)[nH]1 (single isomer, unassigned) [Example 3]; 51.3
Nc1nc2c(ncn2[C@@H]2O[C@@H]3COP(=O)(S)O[C@H]4[C@H](F)[C@H](n5nnc6c(N)ncnc65)O[C@@H]4COP(=O)(S)O[C@H]2[C@@H]3O)c(=O)[nH]1 (single isomer, unassigned) [Example 2]; 1130
Nc1nc2c(ncn2[C@@H]2O[C@@H]3COP(=O)(S)O[C@H]4[C@H](F)[C@H](n5nnc6c(N)ncnc65)O[C@@H]4COP(=O)(S)O[C@H]2C3)c(=O)[nH]1 (single isomer, unassigned) [Example 6]; 241

Could you now consider this next molecule?
Record Nc1nc2c(ncn2[C@@H]2O[C@@H]3COP(=O)(S)O[C@H]4[C@H](F)[C@H](n5nnc6c(N)ncnc65)O[C@@H]4COP(=O)(S)O[C@H]2[C@@H]3O)c(=O)[nH]1 (single isomer, unassigned) [Example 1] . Reported EC50: 1140
